Experiment: Transdermal delivery of melatonin: plasma level of melatonin after applying composition to skin of a subject
Details: human, plasma, topical, 3 mg
ASSAY_ENDPOINT: concentration at 0 h (ng/mL)

1. COc1ccc2[nH]cc(CCNC(C)=O)c2c1 [Melatonin] | 0

====

Assay: Transdermal delivery of melatonin: plasma level of melatonin after applying composition to skin of a subject
Conditions: human, plasma, topical, 3 mg, Plasma level of melatonin, salt of tryptophan isopropyl ester, A− = Citrate ion, 159.67 mM, 0.30 mL applied, 4 hr after transdermal administration
ASSAY_ENDPOINT: concentration at 4 h (ng/mL)

1. COc1ccc2[nH]cc(CCNC(C)=O)c2c1 | 2.4

All figures here come from patent US9962369B2.
